As shown below, each of these binders has a reported koff value.
# targetOrTestSystem: T1, rat α-CGRP (1-37) (rat, C-terminal amide; N-terminal biotin when captured on the SA chip)
# T1 construct: also called rat α (1-37); α-rat
# T1 peptide: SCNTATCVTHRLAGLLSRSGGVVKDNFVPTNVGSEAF
# procedureText: Biacore, 37°C, Fab over CGRP on SA chip
// units = s⁻¹; emit number, no label

Past entries and their recorded results:
binder: G1 variant M73 Fab (Fab, V domains shown, Fab; constant domains as m1) VH: EVQLVESGGGLVQPGGSLRLSCAASGFTFSNYWISWVRQAPGKGLEWVAEIRSKSDNYATHYADAVKGRFTISRDNAKNSLYLQMNSLRAEDTAVYYCTVYFDYGLAIQNYWGQGTLVTVSS VL: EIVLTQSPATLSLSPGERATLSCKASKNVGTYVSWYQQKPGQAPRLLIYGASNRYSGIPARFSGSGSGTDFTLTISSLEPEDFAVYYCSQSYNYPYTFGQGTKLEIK
unitAbbreviation: s⁻¹
koff: 0.003
//
binder: G1 variant M39 Fab (Fab, V domains shown, Fab; constant domains as m1) VH: EVQLVESGGGLVQPGGSLRLSCAASGFTFSNYWISWVRQAPGKGLEWVAEIRSESDNYATHYAEAVKGRFTISRDNAKNSLYLQMNSLRAEDTAVYYCTVYFDYGLAIQNYWGQGTLVTVSS VL: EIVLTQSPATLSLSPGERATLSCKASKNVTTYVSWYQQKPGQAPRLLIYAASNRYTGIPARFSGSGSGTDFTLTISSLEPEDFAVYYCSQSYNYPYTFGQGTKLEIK
unitAbbreviation: s⁻¹
koff: 0.00995
//
binder: G1 variant M17 Fab (Fab, V domains shown, Fab; constant domains as m1) VH: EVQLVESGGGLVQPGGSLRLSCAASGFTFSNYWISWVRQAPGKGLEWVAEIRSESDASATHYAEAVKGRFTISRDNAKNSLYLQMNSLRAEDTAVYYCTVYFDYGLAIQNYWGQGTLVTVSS VL: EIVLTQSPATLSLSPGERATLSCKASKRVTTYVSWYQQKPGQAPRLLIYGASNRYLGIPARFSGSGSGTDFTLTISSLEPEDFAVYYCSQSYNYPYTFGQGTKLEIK
unitAbbreviation: s⁻¹
koff: 0.00206
//
binder: G1 variant M48 Fab (Fab, V domains shown, Fab; constant domains as m1) VH: EVQLVESGGGLVQPGGSLRLSCAASGFTFSNYWISWVRQAPGKGLEWVAEIRSKSDNLATHYAEAVKGRFTISRDNAKNSLYLQMNSLRAEDTAVYYCTVYFDYGLAIQNYWGQGTLVTVSS VL: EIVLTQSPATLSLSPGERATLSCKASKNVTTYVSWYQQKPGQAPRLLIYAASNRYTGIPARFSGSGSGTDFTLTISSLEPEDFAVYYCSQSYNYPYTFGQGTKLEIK
unitAbbreviation: s⁻¹
koff: 0.0343
//
binder: G1 variant M20 Fab (Fab, V domains shown, Fab; constant domains as m1) VH: EVQLVESGGGLVQPGGSLRLSCAASGFTFSNYWISWVRQAPGKGLEWVAEIRSESDASATHYAEAVKGRFTISRDNAKNSLYLQMNSLRAEDTAVYYCRLYFDYGLAIQNYWGQGTLVTVSS VL: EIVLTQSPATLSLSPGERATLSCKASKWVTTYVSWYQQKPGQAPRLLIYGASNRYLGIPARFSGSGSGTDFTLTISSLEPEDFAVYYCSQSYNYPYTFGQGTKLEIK
unitAbbreviation: s⁻¹
koff: 0.00144
//
binder: G1 variant M47 Fab (Fab, V domains shown, Fab; constant domains as m1) VH: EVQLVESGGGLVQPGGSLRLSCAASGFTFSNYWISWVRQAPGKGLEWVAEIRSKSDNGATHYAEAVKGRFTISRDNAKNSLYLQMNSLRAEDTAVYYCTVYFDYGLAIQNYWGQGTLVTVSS VL: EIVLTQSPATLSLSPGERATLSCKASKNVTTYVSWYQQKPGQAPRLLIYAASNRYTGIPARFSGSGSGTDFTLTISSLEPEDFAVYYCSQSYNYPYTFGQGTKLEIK
unitAbbreviation: s⁻¹
koff: 0.00823
//
binder: G1 variant M55 Fab (Fab, V domains shown, Fab; constant domains as m1) VH: EVQLVESGGGLVQPGGSLRLSCAASGFTFSNYWISWVRQAPGKGLEWVAEIRSKSDNEATHYADAVKGRFTISRDNAKNSLYLQMNSLRAEDTAVYYCTVYFDYGLAIQNYWGQGTLVTVSS VL: EIVLTQSPATLSLSPGERATLSCKASKNVATYVSWYQQKPGQAPRLLIYGASNRYSGIPARFSGSGSGTDFTLTISSLEPEDFAVYYCSQSYNYPYTFGQGTKLEIK
unitAbbreviation: s⁻¹
koff: 0.00585
//
binder: G1 variant M15 Fab (Fab, V domains shown, Fab; constant domains as m1) VH: EVQLVESGGGLVQPGGSLRLSCAASGFTFSNYWISWVRQAPGKGLEWVAEIRSESDASATHYAEAVKGRFTISRDNAKNSLYLQMNSLRAEDTAVYYCTPYFDYGLAIQNYWGQGTLVTVSS VL: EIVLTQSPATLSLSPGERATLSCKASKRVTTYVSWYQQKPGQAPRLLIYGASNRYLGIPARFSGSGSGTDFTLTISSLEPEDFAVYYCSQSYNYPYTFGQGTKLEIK
unitAbbreviation: s⁻¹
koff: 0.00115
//
binder: G1 variant M37 Fab (Fab, V domains shown, Fab; constant domains as m1) VH: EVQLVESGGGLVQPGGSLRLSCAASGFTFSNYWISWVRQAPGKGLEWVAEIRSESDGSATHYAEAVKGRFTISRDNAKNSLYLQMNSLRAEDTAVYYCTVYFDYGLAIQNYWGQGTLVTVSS VL: EIVLTQSPATLSLSPGERATLSCKASKNVSTYVSWYQQKPGQAPRLLIYGASNRYLGIPARFSGSGSGTDFTLTISSLEPEDFAVYYCSQSYNYPYTFGQGTKLEIK
unitAbbreviation: s⁻¹
koff: 0.00145

As a next step, examine the binder that follows.
Lab note: measured koff of G1 variant M8 Fab (Fab, V domains shown, Fab; constant domains as m1) VH: EVQLVESGGGLVQPGGSLRLSCAASGFTFSNYWISWVRQAPGKGLEWVAEIRSESDASATHYAEAVKGRFTISRDNAKNSLYLQMNSLRAEDTAVYYCNGYFDYGLAIQNYWGQGTLVTVSS VL: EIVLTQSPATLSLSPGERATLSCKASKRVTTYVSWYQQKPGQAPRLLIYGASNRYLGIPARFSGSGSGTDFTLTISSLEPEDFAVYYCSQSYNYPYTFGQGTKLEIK was 0.000745
